# Tested on: Trypanosoma cruzi
# test summary: Antiparasitic activity against epimastigote form of Trypanosoma cruzi BM Lopez (TcIa) assessed as inhibition of parasite growth incubated for 96 hrs followed by incubation with resazurin for 4 to 6 hrs by resazurin dye based fluorescence analysis
# Assay type: functional, organism-based
Listing of recorded IC50 by entry.

Check out these entries, answers already filled in.
>>> reported_result("C[C@]12SC(c3ccc(N4CCNCC4)cc3)=CC1=C1CCCC1=C1C=C(c3ccc(N4CCNCC4)cc3)S[C@@]12C")
"> 50 µM"
>>> reported_result("NCCOc1cc(C(=O)Nc2cc(OCCN)c3ccccc3n2)nc(C(=O)Nc2cc(OCCN)c3ccccc3n2)c1 [PYRIDOSTATIN]")
"> 100 µM"
>>> reported_result("C[C@]12SC(c3ccc(CN4CCCC4)cc3)=CC1=C1CCCC1=C1C=C(c3ccc(CN4CCCC4)cc3)S[C@@]12C")
"> 50 µM"

Moving on to the next compound.
Request: // lookup IC50 for `CN(C)CCc1ccc(C2=CC3=C4CCCC4=C4C=C(c5ccc(CCN(C)C)cc5)S[C@]4(C)[C@@]3(C)S2)cc1`
Response: > 48.4 µM

Origin of measurements: ChEMBL document CHEMBL5608180
